Measured Change in OD600, R6X ΔlytA accompanies every entry in the list below.
- Test system: R6X ΔlytA
- Assay Details: Microtiter plate lysis assay, strain R6X ΔlytA
- Assay type: cell-based, S. pneumoniae
- Condition Set: Test 2; compound 0.1%; 15 min at 36° C.
Return type: number; implicit unit %.

Answered cases to consult:
CCCCCCCCS(=O)(=O)O
3
CCCCCCCCCCCCN(C)CC(=O)O
−40
CCCCCCCCCCCCOS(=O)(=O)[O-].[Na+] [SDS, sodium dodecyl sulfate]
−13

In: Field request: Change in OD600, R6X ΔlytA | item: C[C@H](CCC(=O)O)[C@H]1CC[C@H]2[C@@H]3CC[C@@H]4C[C@H](O)CC[C@]4(C)[C@H]3C[C@H](O)[C@]12C
Out: 20
